# testedSystem: plasmin (Homo sapiens)
# protocolDescription: Plasmin assay (S-2251 substrate)
# Format: biochemical
# Parameters: 50 μL 25 nM human plasmin
# conditionInfo: 30 min preincubation, room temperature; tested 0.025-25 μM; Inact. = no inhibition at highest concentration
Residues, ends and D or L forms follow the SMILES beside them. *: point of attachment. Boc = CC(C)(C)OC(=O)*
reportedProperty: IC50 (µM)
Provide only the numeric value, understood in µM.

Request: Report IC50 for CC(=O)N[C@@H](CC(C)C)C(=O)N[C@@H](CC(C)C)C(=O)N[C@H](C=O)CCCNC(=N)N [Leupeptin, reference compound]
Result: 8

Request: Report IC50 for CC(C)(C)OC(=O)N[C@@H](CCC(=O)O)C(=O)N1CCC[C@H]1C(=O)N[C@H](C=O)CCCNC(=N)N [Compound 8] (Boc-Glu-Pro-Arg-aldehyde)
Result: 0.6

Request: Report IC50 for CCOC(=O)c1ccc(OC(=O)CCCCCN=C(N)N)cc1.CS(=O)(=O)O [FOY, gabexate mesilate, reference compound]
Result: 1.6

* * *

Exercise: state measured IC50 for each of the compounds provided.
# testedSystem: human Factor XIa (Homo sapiens)
# Sequence (P03951 388-625 limits assumed): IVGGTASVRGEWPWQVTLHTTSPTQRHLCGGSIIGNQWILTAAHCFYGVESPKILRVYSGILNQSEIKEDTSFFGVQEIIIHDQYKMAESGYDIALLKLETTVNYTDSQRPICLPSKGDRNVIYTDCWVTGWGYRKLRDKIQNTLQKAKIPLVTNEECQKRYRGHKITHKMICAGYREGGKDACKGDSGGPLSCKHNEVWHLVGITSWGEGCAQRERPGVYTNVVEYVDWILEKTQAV
# Sequence (P03951 19-387 partner limits assumed): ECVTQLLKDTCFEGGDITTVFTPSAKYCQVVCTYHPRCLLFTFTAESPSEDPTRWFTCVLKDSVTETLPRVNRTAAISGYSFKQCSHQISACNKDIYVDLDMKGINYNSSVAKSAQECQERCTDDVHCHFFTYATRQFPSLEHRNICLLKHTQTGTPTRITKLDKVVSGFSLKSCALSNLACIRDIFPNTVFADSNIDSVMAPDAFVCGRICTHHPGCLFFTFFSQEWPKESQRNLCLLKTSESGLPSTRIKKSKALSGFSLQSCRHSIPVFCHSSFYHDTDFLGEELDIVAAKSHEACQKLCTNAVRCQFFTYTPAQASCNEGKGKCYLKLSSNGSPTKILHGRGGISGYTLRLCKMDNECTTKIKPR
Residues, ends and D or L forms follow the SMILES beside them. *: point of attachment. Boc = CC(C)(C)OC(=O)*
Provide only the numeric value, understood in µM.

Request: Report IC50 for CC(C)(C)OC(=O)N[C@@H](CC(=O)O)C(=O)N1CCC[C@H]1C(=O)N[C@H](C=O)CCCNC(=N)N [Compound 9] (Boc-Asp-Pro-Arg-aldehyde)
Result: 12

Request: Report IC50 for CC(C)(C)OC(=O)N[C@@H](CCC(=O)O)C(=O)N1CCC[C@H]1C(=O)N[C@H](C=O)CCCNC(=N)N [Compound 8] (Boc-Glu-Pro-Arg-aldehyde)
Result: 4

Request: Report IC50 for CC(C)COC(=O)NC(CC(=O)O)C(=O)N1CCCC1C(=O)NC(C=O)CCCN=C(N)N (stereo not shown)
Result: 13

Request: Report IC50 for N=C(N)NCCC[C@@H](C=O)NC(=O)[C@@H]1CCCN1C(=O)[C@H](CC(=O)O)NC(=O)OC12CC3CC(CC(C3)C1)C2
Result: 6

Request: Report IC50 for CC(=O)N[C@@H](CC(C)C)C(=O)N[C@@H](CC(C)C)C(=O)N[C@H](C=O)CCCNC(=N)N [Leupeptin, reference compound]
Result: 11

* * *

Non-standard residues stand in square brackets, D forms with d. Residues, ends and D or L forms follow the SMILES beside them. *: point of attachment. Boc = CC(C)(C)OC(=O)*
Exercise: state measured IC50 for each of the molecules provided.
Provide only the numeric value, understood in nM.

Request: With plasmin (Homo sapiens, UniProt P00747) as the test system, provide measured IC50 for this molecule: CC(C)COC(=O)NC(CC(=O)O)C(=O)N1CCCC1C(=O)NC(C=O)CCCN=C(N)N (stereo not shown)
Sequence (P00747 581-810 limits assumed): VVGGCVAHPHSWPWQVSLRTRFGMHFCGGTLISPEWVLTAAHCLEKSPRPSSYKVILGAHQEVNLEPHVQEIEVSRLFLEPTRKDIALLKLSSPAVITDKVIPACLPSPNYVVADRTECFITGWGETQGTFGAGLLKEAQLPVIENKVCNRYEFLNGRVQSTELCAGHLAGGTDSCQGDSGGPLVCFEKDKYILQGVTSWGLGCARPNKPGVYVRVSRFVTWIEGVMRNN
Sequence (P00747 97-580 partner limits assumed): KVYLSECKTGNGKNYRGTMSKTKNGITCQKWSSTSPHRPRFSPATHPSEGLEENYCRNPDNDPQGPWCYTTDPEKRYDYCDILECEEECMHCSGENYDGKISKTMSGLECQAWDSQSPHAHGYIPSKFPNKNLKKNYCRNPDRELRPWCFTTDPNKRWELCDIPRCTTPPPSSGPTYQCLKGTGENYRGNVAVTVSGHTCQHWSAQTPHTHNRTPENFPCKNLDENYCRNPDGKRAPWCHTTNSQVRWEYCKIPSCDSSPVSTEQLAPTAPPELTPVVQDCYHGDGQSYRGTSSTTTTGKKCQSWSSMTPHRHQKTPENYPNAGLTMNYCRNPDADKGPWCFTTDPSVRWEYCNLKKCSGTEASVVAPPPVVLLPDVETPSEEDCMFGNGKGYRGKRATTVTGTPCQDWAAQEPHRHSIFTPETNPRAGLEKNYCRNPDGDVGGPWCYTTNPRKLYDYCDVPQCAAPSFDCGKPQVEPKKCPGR
Result: 1200

Request: With plasmin (Homo sapiens, UniProt P00747) as the test system, provide measured IC50 for this molecule: CC(C)(C)OC(=O)N[C@H](CC(=O)O)C(=O)N1CCC[C@H]1C(=O)N[C@H](C=O)CCCNC(=N)N [Compound 12] (Boc-[dD]-Pro-Arg-aldehyde)
Result: 1200

Request: With plasmin (Homo sapiens, UniProt P00747) as the test system, provide measured IC50 for this molecule: CC(C)(C)OC(=O)N[C@@H](CC(=O)O)C(=O)N1CCC[C@H]1C(=O)N[C@H](C=O)CCCNC(=N)N [Compound 9] (Boc-Asp-Pro-Arg-aldehyde)
Result: 1400

Request: With plasmin (Homo sapiens, UniProt P00747) as the test system, provide measured IC50 for this molecule: N=C(N)NCCC[C@@H](C=O)NC(=O)[C@@H]1CCCN1C(=O)[C@H](CC(=O)O)NC(=O)OC12CC3CC(CC(C3)C1)C2
Result: 1100
